Each recorded value in this set is attributed to the supplement of paper PMC10567573.

B1: P2RY14 (parent)
chain: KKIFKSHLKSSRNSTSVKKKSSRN

# Variants of: B1
# methodSummary: protein stability index of a GFP-peptide fusion (GPS, HEK-293T) (PSI 1-6); higher = more stable;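 further: lentivirally expressed fusions sorted by FACS into six bins by GFP to DsRed ratio, PSI derived from sequencing read proportions per bin multiplied by bin number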
# testContext: c terminus: a fixed tail appended

variantLabel	protein stability index
K18G	3.99
K5F	4.01
S16G	4.1
